Data credit: ChEMBL document CHEMBL1146710

The following compounds are shown together with reported IC50 values.
# assay-target: Dihydroorotate dehydrogenase (quinone), mitochondrial (Homo sapiens)
# Sequence (Q02127 whole entry): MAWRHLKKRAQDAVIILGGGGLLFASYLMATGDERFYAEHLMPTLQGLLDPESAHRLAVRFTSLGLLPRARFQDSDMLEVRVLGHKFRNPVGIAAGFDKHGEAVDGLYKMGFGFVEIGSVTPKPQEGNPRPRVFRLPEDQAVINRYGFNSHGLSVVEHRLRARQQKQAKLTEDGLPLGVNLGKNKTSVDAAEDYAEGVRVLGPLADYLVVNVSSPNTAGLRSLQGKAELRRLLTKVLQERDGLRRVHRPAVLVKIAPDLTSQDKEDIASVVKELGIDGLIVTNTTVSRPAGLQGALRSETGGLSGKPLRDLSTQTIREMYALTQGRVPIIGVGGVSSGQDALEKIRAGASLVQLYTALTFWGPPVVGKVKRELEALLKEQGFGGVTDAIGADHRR
endpoint-name: IC50 (nM)

- O=C(O)C1=C(C(=O)Nc2ccc(-c3cccc(O)c3)cc2F)CCC1: 610
- COc1ccc(-c2ccc(NC(=O)C3=C(C(=O)O)CCC3)c(Cl)c2)cc1: 8400
- Cc1cc(-c2cccc(OC(F)(F)F)c2)ccc1NC(=O)C1=C(C(=O)O)CCC1: 150
- CN(C)c1ccc(-c2ccc(NC(=O)C3=C(C(=O)O)CCC3)cc2Cl)cc1: 50
- CN(C)c1ccc(-c2cc(F)c(NC(=O)C3=C(C(=O)O)CCC3)c(F)c2)cc1: 610
- O=C(O)C1=C(C(=O)Nc2ccc(-c3cccc(OC(F)(F)F)c3)cc2F)CCC1: 280
- O=C(O)C1=C(C(=O)Nc2c(F)cc(-c3ccccc3Cl)cc2F)CCC1: 18
- N#Cc1cc(-c2cccc(OC(F)(F)F)c2)ccc1NC(=O)C1=C(C(=O)O)CCC1: 370
- O=C(O)C1=C(C(=O)Nc2ccc(-c3cccc4ccccc34)cc2C(F)(F)F)CCC1: 180
- COc1cc(-c2ccccc2Cl)ccc1NC(=O)C1=C(C(=O)O)CCC1: 225
